Provenance of the data: PubChem BioAssay (NCI)

test system: HT29 colon; experiment: NCI-60 one-dose screen, 48 h (100 = growth as untreated, 0 = no growth, -100 = all killed); conditions: 10 µM unless noted
This is part of a sample that, as a whole, favours compounds with a hit. Of some 83,000 tested, about 20% had one in any assay.
Outcome label depends on growth relative to 30%: at/above gives Satisfied, below gives Not satisfied.

{"compound": "Cc1c(Cc2ccccc2)c(=O)oc2c(C)c(OCC(=O)n3nc(C#N)cc3N)ccc12", "category": "Satisfied"}
{"compound": "O=C(c1ccccc1)c1ccccc1-c1ccccc1", "category": "Not satisfied"}

[ask] Does the reported growth for CCCCN(CCCC)CCCNc1c2c(nc3ccc(Cl)cc13)CCCC2 fall at or above the 30% mark?
[reply] Satisfied

[ask] Does the compound Cc1nc2ccccc2c(=O)n1-c1cccc(OCc2cn(-c3cccc(O)c3)nn2)c1 have recorded growth that is 30% or more?
[reply] Satisfied

[ask] Kindly determine if growth recorded for N=c1c2c(=O)n3c(nc2nc2sc4ccc(Cl)cc4n12)-c1ccccc1Sc1ccccc1-3 is above or exactly 30%.
[reply] Not satisfied

[ask] I'd appreciate it if you could say whether COc1cc2c(c(OC)c1OC)C(=O)CC(c1cccc(C(=O)Nc3cccc(Br)c3)c1)O2 (centres undefined) has growth at least equal to 30%.
[reply] Satisfied

[ask] Threshold query (growth >= 30%) on CC(O)CCC(C)[N+](=O)[O-] (centres undefined)
[reply] Satisfied

[ask] Hello, I need to know if COc1ccc(C(=O)c2no[n+]([O-])c2C(=O)c2ccc(OC)cc2)cc1 has measured growth not below 30%. Thanks!
[reply] Not satisfied

[ask] State whether the measured growth reaches 30%, counting equality as reaching it, for CCCCCCCCc1ccc(OCCOCC[N+](C)(C)CC)cc1 (tested in a mixture with another compound)
[reply] Not satisfied

[ask] Can COc1cc(/C=C/C(=O)c2ccc(F)cc2)ccc1OCCCCOc1cc2c(cc1OC)C(=O)N1CCCC1C=N2 (centres undefined) be said to have growth at or above 30%?
[reply] Not satisfied

###

system: HCC-2998 colon; assay: NCI-60 one-dose screen, 48 h (100 = growth as untreated, 0 = no growth, -100 = all killed); conditions: 10 µM unless noted
This is part of a sample that, as a whole, favours compounds with a hit. Of some 83,000 tested, about 20% had one in any assay.
growth overview
State the answer as a number, implicitly in %.

{"molecule": "CC1(C)N=C(N)N=C(N)N1c1cccc(CCCCOc2ccccc2)c1", "units symbol": "%", "obs value": 27.1}
{"molecule": "CCCCCC(=C/c1ccccc1)/C=N/N=C(N)N", "units symbol": "%", "obs value": -79}
{"molecule": "COc1ccc(/C=N/c2cc(C(C)(C)C)nn2-c2ccccc2)cc1", "units symbol": "%", "obs value": 132}
{"molecule": "N/C(=N\\O)c1ccncc1", "units symbol": "%", "obs value": 95.8}

[ask] So what does the record say about growth for CCCCCCCCCCCCCCCC[n+]1cccc(C#N)c1 ?
[reply] 65.2

[ask] I am curious: what growth value has been reported for CCCCCCCCCCCCCCCCCC1=NCCN1CCNC(C)=O ?
[reply] 92.3

[ask] Need growth, item COc1ccccc1Cn1cc2c(c1)-c1oncc1CC2
[reply] -43.1

[ask] What value of growth has been reported for the following molecule? O=C(CCl)NC1c2ccccc2Oc2ccccc21
[reply] 111

[ask] Entry under review: O=C(OCC1CC2(Cl)C(Cl)=C(Cl)C1(Cl)C2(Cl)Cl)C1C(C(=O)OCC2CC3(Cl)C(Cl)=C(Cl)C2(Cl)C3(Cl)Cl)C2(Cl)C(Cl)=C(Cl)C1(Cl)C2(Cl)Cl (centres undefined) . Reported growth?
[reply] 102

[ask] Query: growth; subject: COC(=O)c1cc(O)c2cc3c(cc2c1-c1cc(OC)c(OC)c(OC)c1)OCO3
[reply] 52.3

[ask] Can you share its growth? I mean this molecule: Cc1c(CN(C)C)cc(C(C)C)cc1C(C)C
[reply] 104

[ask] Recorded growth for CC(=O)OCC1O[C@@H](OC(C)=O)[C@@H](NC(=O)NS(=O)(=O)c2ccccc2)C(OC(C)=O)[C@@H]1OC(C)=O (some centres undefined) , please?
[reply] 113

[ask] Quick one: growth for CCCCS(=O)(=O)c1cc(Nc2ccc(O)c3c2C(=O)c2ccccc2C3=O)ccc1C ?
[reply] 67

[ask] What value of growth has been reported for the following molecule? COc1ccccc1CNCCCN1C(=O)c2ccc3c4c(ccc(c24)C1=O)C(=O)N(CCCNCc1ccccc1OC)C3=O
[reply] -94.7

[ask] Report growth for CCOP1(=O)CC(C)=C(Cl)C(P(=O)(O)O)C1 (centres undefined) please.
[reply] 94.4

###

system: HCC-2998 colon; experiment: NCI-60 one-dose screen, 48 h (100 = growth as untreated, 0 = no growth, -100 = all killed); details: 10 µM unless noted
The panel holds about 83,000 compounds, 20% with a hit somewhere; the sample as a whole holds those more often.
growth strictly under 90% means label 1; at 90% or over means label 0.

{"compound": "O=C(NC1CCN(Cc2ccccc2)CC1)c1cc(-c2cccnc2)nc2ccc(Cl)cc12", "category": "label 1"}
{"compound": "CCOC(=O)c1ccc2n1CCCc1cnc(NC(C)=O)nc1-2", "category": "label 0"}
{"compound": "COc1cc(/C=C/C(=O)c2ccc(F)cc2)ccc1OCCCCOc1cc2c(cc1OC)C(=O)N1CCCC1C=N2 (stereo not given)", "category": "label 1"}
{"compound": "O=C(/C(Br)=C/c1ccccc1)c1ccccc1", "category": "label 0"}

[ask] I wonder whether COC(=O)[C@@H]1[C@H](O)[C@H](C)[C@H](O)[C@H](C)/C=C\C=C(C)C(=O)Nc2c(C)c(OC(C)=O)c3c(c2O)C(=O)C(C)=C2OCOC(=C23)C(C)=C[C@@](C)(O)[C@H](O)[C@@H](C)[C@H]1OC(C)=O has growth below 90%. Can you tell?
[reply] label 0

[ask] Could you please tell me whether growth recorded for COc1nc(OC)nc(-c2cc(-c3cc(OC)c(OC)c(OC)c3)no2)n1 is less than 90%?
[reply] label 0

[ask] growth under 90%? Item: CC(=O)N1N=C(c2ccc(Cl)cc2)CC1c1cn(-c2ccccc2)nc1-c1ccc([N+](=O)[O-])cc1 (stereo not given)
[reply] label 0

[ask] Field: below-cutoff. Rule: recorded growth strictly less than 90%. Subject: COc1ccc2sc(-n3nc4nc5n(c(=O)c4c3N)-c3ccccc3Sc3ccccc3-5)nc2c1
[reply] label 0

[ask] Please indicate whether the reported growth of CCCCN(CCCC)c1ccc(C(=O)O)cc1 is strictly below 90%.
[reply] label 0

[ask] Record CC1=C(C)C[C@]2(C(=O)O[C@H]3CCCC[C@@H]32)[S@](=O)C1 : is its growth strictly below 90%?
[reply] label 0

###

test system: SNB-75 CNS; assay: NCI-60 one-dose screen, 48 h (100 = growth as untreated, 0 = no growth, -100 = all killed); settings: 10 µM unless noted
The panel holds about 83,000 compounds, 20% with a hit somewhere; the sample as a whole holds those more often.
parameter: growth (%)
Write the number in % without appending the unit.

The following compounds have reported results that may help.
{"compound": "NNC(=S)N1N=C(c2cc3ccccc3o2)CC1c1c[nH]c2ccccc12 (stereo not given)", "system name": "SNB-75 CNS", "growth [%]": 88.4}
{"compound": "COc1ccc2c(N)ncc(C#Cc3cc(C(=O)Nc4ccc(CN5CCN(C)CC5)c(C(F)(F)F)c4)cnc3C)c2c1", "system name": "SNB-75 CNS", "growth [%]": -11.1}
{"compound": "c1ccc(-c2cn3ccnc3c(-c3ccc4ncn(C5CCCCC5)c4c3)n2)cc1", "system name": "SNB-75 CNS", "growth [%]": 55.6}
{"compound": "Nc1cc(N)c2nc(-c3ccccc3)c(NCCc3ccc(Cl)c(Cl)c3)nc2c1", "system name": "SNB-75 CNS", "growth [%]": -33.7}
{"compound": "CC(=O)OC1/C=C\\CC/C=C\\C1 (stereo not given)", "system name": "SNB-75 CNS", "growth [%]": 82.6}
{"compound": "COc1ccc(C2=C/C(=C\\c3ccc(Cl)cc3)C(=O)NN2C(=S)NN)cc1", "system name": "SNB-75 CNS", "growth [%]": 61.2}

[ask] Which growth value is on record for O=[N+]([O-])c1ccc(-c2ncc(-c3ccc(O)cc3O)[nH]2)cc1 ?
[reply] 103

[ask] Quick one: growth for N=C(N)c1ccc(-c2ccc(-c3cc(Cl)cc(Cl)c3)s2)cc1 ?
[reply] -90.6

[ask] // returns reported growth for input O=c1c(N=Nc2nccs2)c(-c2ccccc2)[nH]n1-c1nc(-c2ccccc2)cs1
[reply] 61

[ask] What value of growth has been reported for the following compound? CCCC(C)c1cc(Cc2cc(Cl)cc(Cl)c2O)c(O)c(Cc2cc(Cl)cc(Cl)c2O)c1 (stereo not given)
[reply] 12.2

[ask] What value of growth has been reported for the following compound? O=C(O)c1occ(Cl)c1Cl
[reply] 99.2

[ask] Given COc1ccc(OC)c(Cn2cc3c(c2-c2ccccc2)CCc2cnoc2-3)c1 , state its recorded growth.
[reply] 55.9

[ask] Record request: growth value, item CC1=C[C@@H]2c3c(c(O)c(O)c4oc5cc(O)cc(O)c5c(=O)c34)[C@@H](c3cc(O)c(O)c4oc5cc(O)cc(O)c5c(=O)c34)[C@@H]2C(C)(C)C1
[reply] 16.7

[ask] Look up growth for this compound: COc1ccc(-c2nc(SCC(C)C)nc(Nc3ccc(C(=O)O)cc3)c2C#N)cc1
[reply] 88.6
